METHOD_DESCRIPTION: Cytotoxicity against MDCK cells assessed as reduction in cell viability incubated for 48 hrs
Assay type: toxicity, cell-based, Canis lupus familiaris
EXPERIMENTAL_SETUP: dog
Answer each item with its documented CC50 at 48 h.

-- ask Recorded CC50 at 48 h of CC1(C)[C@@H](SCCS[C@@H]2O[C@H](C(=O)O)[C@@H](O)[C@H](O)[C@H]2O)CC[C@]2(C)[C@H]3C(=O)C=C4[C@@H]5C[C@@](C)(C(=O)O)CC[C@]5(C)CC[C@@]4(C)[C@]3(C)CC[C@@H]12 , please.
-- reply > 250 µg/mL

-- ask Recorded CC50 at 48 h of CC(=O)N(CCS[C@@H]1O[C@H](C(=O)O)[C@@H](O)[C@H](O)[C@H]1O)[C@H]1CC[C@]2(C)[C@H]3C(=O)C=C4[C@@H]5C[C@@](C)(C(=O)O)CC[C@]5(C)CC[C@@]4(C)[C@]3(C)CC[C@H]2C1(C)C , please.
-- reply > 250 µg/mL

-- ask Recorded CC50 at 48 h of COC(=O)[C@H]1O[C@@H](SCCN(C(C)=O)[C@H]2CC[C@]3(C)[C@H]4C(=O)C=C5[C@@H]6C[C@@](C)(C(=O)O)CC[C@]6(C)CC[C@@]5(C)[C@]4(C)CC[C@H]3C2(C)C)[C@H](O)[C@@H](O)[C@@H]1O , please.
-- reply > 75 µg/mL

-- ask Recorded CC50 at 48 h of CC1(C)[C@@H](O)CC[C@]2(C)[C@H]3C(=O)C=C4[C@@H]5C[C@@](C)(C(=O)O)CC[C@]5(C)CC[C@@]4(C)[C@]3(C)CC[C@@H]12 [ENOXOLONE] , please.
-- reply 7.4 µg/mL

###

METHOD_DESCRIPTION: Oral bioavailability in rat
Format: ADME, organism-based
EXPERIMENTAL_SETUP: in vivo
OBSERVATION_TYPE: bioavailability (%)
A number alone suffices; assume %.

-- ask Recorded bioavailability of O=c1cc(-c2ccccc2)oc2cc(O)c(O)c(O)c12 [BAICALEIN] , please.
-- reply 2.2

###

METHOD_DESCRIPTION: Water solubility of the compound
Format: physicochemical
OBSERVATION_TYPE: solubility

-- ask Recorded solubility of CC1(C)[C@@H](O)CC[C@]2(C)[C@H]3C(=O)C=C4[C@@H]5C[C@@](C)(C(=O)O)CC[C@]5(C)CC[C@@]4(C)[C@]3(C)CC[C@@H]12 , please.
-- reply < 10 µg/mL

###

METHOD_DESCRIPTION: Cytotoxicity against MDCK cells assessed as reduction in cell viability incubated for 72 hrs by MTT assay
Format: toxicity, cell-based, Canis lupus familiaris
EXPERIMENTAL_SETUP: dog
OBSERVATION_TYPE: CC50 at 72 h

-- ask Recorded CC50 at 72 h of COC(=O)C(Cc1c[nH]c2ccccc12)NC(=O)[C@H]1O[C@@H](O[C@H]2[C@H](O[C@H]3CC[C@]4(C)[C@H]5C(=O)C=C6[C@@H]7C[C@@](C)(C(=O)NC(Cc8c[nH]c9ccccc89)C(=O)OC)CC[C@]7(C)CC[C@@]6(C)[C@]5(C)CC[C@H]4C3(C)C)O[C@H](C(=O)NC(Cc3c[nH]c4ccccc34)C(=O)OC)[C@@H](O)[C@@H]2O)[C@H](O)[C@@H](O)[C@@H]1O (some centres not stated) , please.
-- reply 620 µg/mL

-- ask Recorded CC50 at 72 h of CCOC(=O)C(Cc1c[nH]c2ccccc12)NC(=O)[C@H]1O[C@@H](O[C@H]2[C@H](O[C@H]3CC[C@]4(C)[C@H]5C(=O)C=C6[C@@H]7C[C@@](C)(C(=O)NC(Cc8c[nH]c9ccccc89)C(=O)OCC)CC[C@]7(C)CC[C@@]6(C)[C@]5(C)CC[C@H]4C3(C)C)O[C@H](C(=O)NC(Cc3c[nH]c4ccccc34)C(=O)OCC)[C@@H](O)[C@@H]2O)[C@H](O)[C@@H](O)[C@@H]1O (some centres not stated) , please.
-- reply > 500 µg/mL
